Hello, the source for this data is ChEMBL document CHEMBL1159379, in case you need it.

Listed compounds paired with reported EC50
- System: HT-29
- procedureText: Cytotoxicity against human HT-29 cells
- Format: functional
- runParameters: read-out: ED50 (the source's name)
propertyMeasured: EC50 (mg/L)

COc1cc(O)c(C(=O)/C=C/c2ccc(O)cc2)cc1Oc1ccc(/C=C/C(=O)c2ccc(O)cc2O)cc1	3
O=C(/C=C/c1ccc(Oc2cc(C(=O)/C=C/c3ccc(O)cc3)c(O)cc2O)cc1)c1ccc(O)cc1O	14
COc1ccc(C(=O)/C=C/c2ccc(Oc3cc(C(=O)/C=C/c4ccc(O)cc4)c(O)cc3OC)cc2)c(O)c1	3
O=C(/C=C/c1ccc(O)c(-c2cc(C(=O)/C=C/c3ccc(O)cc3)c(O)cc2O)c1)c1ccc(O)cc1O	10
